# Measurement Target: T1, Erh1 (residues 1-104), wild type (S. pombe, UniProt G2TRN4 1-104)
# T1 construct: Erh1, S. pombe, residues 1-104, amplified from the S. pombe genome, in a modified pET28a vector without thrombin site (p28a); also called Erh1wt; Enhancer of rudimentary homolog 1; source: E. coli BL21 (Gold), purified (Ni-chelating resin, size-exclusion chromatography)
# T1 sequence (looked up): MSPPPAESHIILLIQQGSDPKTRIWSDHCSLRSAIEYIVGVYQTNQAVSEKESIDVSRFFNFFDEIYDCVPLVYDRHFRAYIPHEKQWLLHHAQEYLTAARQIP
# Protocol Details: ITC; SUMO-tagged Mmi1 peptides titrated into Erh1 in the sample cell; MicroCal iTC200, 293 K; 20 mM Tris-HCl pH 7.5, 150 mM NaCl; single-site binding model
# Condition Context: both partners purified
Measured Kd accompanies every entry in the list below.
Reported Property: Kd (nM)

Binder: GKYDFSRHCTDYGASYEWPYFRSLRRES (domain or fragment, S. pombe, UniProt O74958 95-122, looked up, also called Mmi1 H108A; source: E. coli BL21 (Gold), purified (Ni-chelating resin, size-exclusion chromatography); not shown: SUMO, N-terminal, kept) [SUMO-tagged Mmi1 95-122 H108A]
Reported: 2780

Binder: GKYDFSRHCTDYGHSAEWPYFRSLRRES (domain or fragment, S. pombe, UniProt O74958 95-122, looked up, also called Mmi1 Y110A; source: E. coli BL21 (Gold), purified (Ni-chelating resin, size-exclusion chromatography); not shown: SUMO, N-terminal, kept) [SUMO-tagged Mmi1 95-122 Y110A]
Reported: 15000

Binder: GKYDFSRHCTDYGHSYEWPYFRSLARES (domain or fragment, S. pombe, UniProt O74958 95-122, looked up, also called Mmi1 R119A; source: E. coli BL21 (Gold), purified (Ni-chelating resin, size-exclusion chromatography); not shown: SUMO, N-terminal, kept) [SUMO-tagged Mmi1 95-122 R119A]
Reported: 1220

Binder: GKYDFSRHCADYGHSYEWPYFRSLRRES (domain or fragment, S. pombe, UniProt O74958 95-122, looked up, also called Mmi1 T104A; source: E. coli BL21 (Gold), purified (Ni-chelating resin, size-exclusion chromatography); not shown: SUMO, N-terminal, kept) [SUMO-tagged Mmi1 95-122 T104A]
Reported: 3270

Binder: YGHSYEWPYFRSLRRES (domain or fragment, S. pombe, UniProt O74958 106-122, looked up, source: E. coli BL21 (Gold), purified (Ni-chelating resin, size-exclusion chromatography); not shown: SUMO, N-terminal, kept) [SUMO-tagged Mmi1 106-122]
Reported: 9940

Binder: GKADFSRHCTDYGHSYEWPYFRSLRRES (domain or fragment, S. pombe, UniProt O74958 95-122, looked up, also called Mmi1 Y97A; source: E. coli BL21 (Gold), purified (Ni-chelating resin, size-exclusion chromatography); not shown: SUMO, N-terminal, kept) [SUMO-tagged Mmi1 95-122 Y97A]
Reported: 1750

Binder: GKYDFSRHCTDYGHSYEWPAFRSLRRES (domain or fragment, S. pombe, UniProt O74958 95-122, looked up, also called Mmi1 Y114A; source: E. coli BL21 (Gold), purified (Ni-chelating resin, size-exclusion chromatography); not shown: SUMO, N-terminal, kept) [SUMO-tagged Mmi1 95-122 Y114A]
Reported: 3520

Binder: GKYDASRHCTDYGHSYEWPYFRSLRRES (domain or fragment, S. pombe, UniProt O74958 95-122, looked up, also called Mmi1 F99A; source: E. coli BL21 (Gold), purified (Ni-chelating resin, size-exclusion chromatography); not shown: SUMO, N-terminal, kept) [SUMO-tagged Mmi1 95-122 F99A]
Reported: 996

Binder: GKYDFSRHCTDAGHSYEWPYFRSLRRES (domain or fragment, S. pombe, UniProt O74958 95-122, looked up, also called Mmi1 Y106A; source: E. coli BL21 (Gold), purified (Ni-chelating resin, size-exclusion chromatography); not shown: SUMO, N-terminal, kept) [SUMO-tagged Mmi1 95-122 Y106A]
Reported: 1630

Binder: GKYDFSRHCTDYGHSYEWPYARSLRRES (domain or fragment, S. pombe, UniProt O74958 95-122, looked up, also called Mmi1 F115A; source: E. coli BL21 (Gold), purified (Ni-chelating resin, size-exclusion chromatography); not shown: SUMO, N-terminal, kept) [SUMO-tagged Mmi1 95-122 F115A]
Reported: 1800

Binder: GKYDFARHCTDYGHSYEWPYFRSLRRES (domain or fragment, S. pombe, UniProt O74958 95-122, looked up, also called Mmi1 S100A; source: E. coli BL21 (Gold), purified (Ni-chelating resin, size-exclusion chromatography); not shown: SUMO, N-terminal, kept) [SUMO-tagged Mmi1 95-122 S100A]
Reported: 4730
